# Read-out: CYP2C8 (gene 1558)
# protocol: LTEA_HepaRG_CYP2C8: Life Technologies and Expression Analysis (LTEA) Assay for CYP2C8 using HepaRG (AID 2283483)
# assayConditions: mRNA level, 48 h; actives raise or lower the signal
Active and inactive are the calls of the source. How the source made its calls: active means hit-call score of the fitted dose curve at least 0.9, where 1 is the maximum; inactive means score below 0.9.
I would appreciate it if you answered using one of these outcomes: active, inactive

{"columns": ["compound", "qualitativeLabel"],
 "data": [
  ["CCCCCCCCCCC", "inactive"]
]}

# next compound below
Hello, I am checking results. What call was entered for "C[Si]1(C)O[Si](C)(C)O[Si](C)(C)O[Si](C)(C)O1" ? inactive

----------
# subjectOfTest: sheep Cyclooxygenase-2 (Cox2), PTGS2 (gene 443460) (UniProt P79208)
# Sequence (P79208 whole entry, looked up): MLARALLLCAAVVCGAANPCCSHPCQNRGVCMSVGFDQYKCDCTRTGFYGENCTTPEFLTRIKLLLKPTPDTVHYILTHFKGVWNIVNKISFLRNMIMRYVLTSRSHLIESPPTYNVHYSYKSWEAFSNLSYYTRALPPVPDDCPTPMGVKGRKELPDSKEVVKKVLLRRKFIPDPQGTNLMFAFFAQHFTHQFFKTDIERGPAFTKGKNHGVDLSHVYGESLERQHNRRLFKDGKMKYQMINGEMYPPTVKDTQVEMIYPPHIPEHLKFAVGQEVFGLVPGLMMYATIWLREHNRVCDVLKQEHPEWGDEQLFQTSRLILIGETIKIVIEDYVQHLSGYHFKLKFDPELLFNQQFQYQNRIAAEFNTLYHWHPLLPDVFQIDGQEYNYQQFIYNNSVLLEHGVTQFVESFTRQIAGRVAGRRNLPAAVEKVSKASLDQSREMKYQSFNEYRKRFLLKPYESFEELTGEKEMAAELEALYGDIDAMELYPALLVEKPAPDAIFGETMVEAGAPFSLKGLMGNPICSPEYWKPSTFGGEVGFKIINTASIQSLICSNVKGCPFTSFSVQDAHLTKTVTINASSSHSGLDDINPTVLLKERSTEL
# protocol: NVS_ENZ_oCOX2: NovaScreen (NVS) Enzymatic Assay for sheep Cyclooxygenase-2 (Cox2) (AID 2283231)
Records with an inconclusive call do not appear. Activity calls are given as the source filed them. Rule for the calls: active = hit-call score of the fitted dose curve at least 0.9, where 1 is the maximum; inconclusive = response in the unintended direction; inactive = score below 0.9.
I would appreciate it if you answered using one of these outcomes: yes (1) for active, no (0) for inactive

Examples from the recorded data:
{"columns": ["smilesRepresentation", "qualitativeLabel"],
 "data": [
  ["Cc1ccc(C)c(O)c1C", "yes (1)"],
  ["CC1=C(/C=C/C(C)=C/C=C/C(C)=C/CO)C(C)(C)CCC1", "yes (1)"]
]}

Hello, I am checking results. What call was entered for "CC(=O)Oc1ccccc1C(=O)O" ? no (0)

Hello, I am checking results. What call was entered for "CC(=O)OC/C=C(\C)CCC=C(C)C" ? yes (1)

Hello, I am checking results. What call was entered for "C=CCc1ccc(O)c(OC)c1" ? yes (1)
